- assayExplanation: CNGC cAMP sensor activity inhibitors, counter-screen for NPY-Y1 potentiator/agonist project, cell-based, HEK293-CNG parental, membrane potential fluorescence, Y1 set (AID 1704);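 further: 0% = isoproterenol-stimulated DMSO wells and 100% = unstimulated DMSO wells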
- experimentalConditions: isoproterenol cAMP, at 3.6 µM, stronger effect = higher value
The list shows a part of the results.
Parameter inhibition: see the listing below.
Give a bare numeral; the unit % is implied.

Below, 5 compounds whose answers are already recorded.
O=C(Nc1ccccc1C(F)(F)F)c1cc(-c2ccc(O)cc2)on1	-10.9
O=C(c1cccs1)N1CCN(C(=O)N2CCOCC2)CC1	1.33
O=[N+]([O-])c1cc(Cl)cc(/C=N/NC(=S)Nc2cc(S(=O)(=O)N3CCOCC3)ccc2Cl)c1O	66.5
Cc1ccccc1NCC(=O)N/N=C\c1ccc([N+](=O)[O-])s1	33.8
COC(=O)c1ccc(NC(=O)CN(c2ccc(C)cc2)S(=O)(=O)c2c(C)n[nH]c2C)cc1	36.6

Given item Cc1cccc(OCC(O)CN2CCN(CCN3C(=O)c4cccc5cccc(c45)C3=O)CC2)c1C (stereo not drawn) , the value recorded as its inhibition is 51.3

For record `O=C(Nc1ccc2c(c1)CCC2)c1cccc(S(=O)(=O)Nc2ccccc2Cl)c1` the listed inhibition is 7.5

// inhibition lookup, compound = `COC(=O)c1sc(-c2ccc(C(C)(C)C)cc2)cc1NC(=O)/C=C/C(=O)O` , result: 24.5

###

- assayExplanation: CNGC cAMP sensor activity inhibitors, counter-screen for NPY-Y1 potentiator/agonist project, cell-based, HEK293-CNG parental, membrane potential fluorescence, Y1 set (AID 1704);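 further: 0% = isoproterenol-stimulated DMSO wells and 100% = unstimulated DMSO wells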
- experimentalConditions: isoproterenol cAMP, at 3.6 µM, stronger effect = higher value
The other results are listed elsewhere or left out.
parameter: inhibition (%)
Please give a number only; it is taken to be in %.

Study these solved cases before continuing.
COCCn1nnnc1C(c1ccccc1Cl)N1CCN(c2ccccc2OC)CC1 (stereo not given)	-5.71
CC(=O)c1ccc(NC(=O)C2CC(=O)Nc3nc4ccccc4n32)cc1 (stereo not given)	32.8
CCn1c2ccccc2c2cc(NC(=O)Nc3ccc([N+](=O)[O-])cc3C)ccc21	16.4
N#Cc1ccc(C(=O)Nc2nc(-c3cccs3)c(C(=O)C(F)(F)F)s2)cc1	-18.5

# evaluate next
Reported inhibition ( `O=C1/C(=C/c2coc3ccc(O)cc3c2=O)SC(=S)N1c1ccccc1` ) = 11.7
